tested on: NCI-H23; assay: NCI tumour cell line growth inhibition, 48 h
Activity calls are given as the source filed them. Rule as the data show it: active = GI50 up to about 1.1 µM and inactive = higher.
quantityName: GI50

Here are 3 molecules together with their reported answers.
>  <molecule>
Cc1nc(Nc2ccccc2)sc1C(=O)CC(=O)C(=O)NC12CC3CC(CC(C3)C1)C2

>  <GI50>
> 100 µM (inactive)

$$$$
>  <molecule>
COC(=O)C1(C)CCCC2(C)c3cc(OC)ccc3C(=O)C(Br)C12 (centres undefined)

>  <GI50>
> 10 µM (inactive)

$$$$
>  <molecule>
O=C(Nc1cc(C(=O)Nc2cccc(S(=O)(=O)O)c2)cc(C(=O)Nc2cccc(S(=O)(=O)O)c2)c1)c1cccc(C(=O)Nc2cc(C(=O)Nc3cccc(S(=O)(=O)O)c3)cc(C(=O)Nc3cccc(S(=O)(=O)O)c3)c2)c1

>  <GI50>
> 100 µM (inactive)

$$$$

Assign GI50 to the following record: CC(=O)c1cccc(NC(=O)C(=O)c2c(O)oc3ccccc3c2=O)c1
> 100 µM (inactive)

###

GI50 values, listed per item
system: SNB-78; test: NCI tumour cell line growth inhibition, 48 h
Active and inactive are the calls of the source. Cut-off read from the data, not from the text of the source: active = GI50 up to about 1.1 µM and inactive = higher.

Here are 4 compounds together with their reported answers.
>  <compound>
NC1=Nc2ccccc2Sc2ccccc21

>  <GI50>
> 100 µM (inactive)

$$$$
>  <compound>
COc1cc2c(cc1OC)C(Cc1ccc(Oc3cc(CC4c5cc(OC)c(OC)cc5CCN4C)ccc3O)cc1)N(C)CC2 (stereo not given)

>  <GI50>
28.5 µM (inactive)

$$$$
>  <compound>
CCCN1CN(C(C(=O)N[C@@H]2C(=O)N3C(C(=O)O)=C(C)CSC23)c2ccc(O)cc2)CSC1=S (stereo not given in full)

>  <GI50>
> 100 µM (inactive)

$$$$
>  <compound>
OC1CC1Sc1ccccc1 (stereo not given)

>  <GI50>
26.9 µM (inactive)

$$$$

Assign GI50 to the following record: C=C(C)C(=O)OC1CCC2(C)C(CCC3C2CCC2(C)C(c4ccc(=O)oc4)CC4OC432)C1 (stereo not given)
5.47 µM (inactive)

###

tested on: 786-0; experiment: NCI tumour cell line growth inhibition, 48 h
Activity calls are given as the source filed them. Rule as the data show it: active = GI50 up to about 1.1 µM and inactive = higher.
GI50 values, listed per item

Here are 3 compounds together with their reported answers.
>  <compound>
Oc1ccc(C2Oc3cc(O)cc4c3C2c2cc(O)cc3c2C(c2cc(O)cc5c2C4C(c2ccc(O)cc2)O5)C(c2ccc(O)cc2)O3)cc1 (stereo not drawn)

>  <GI50>
14.2 µM (inactive)

$$$$
>  <compound>
CCCCCCCCCCCCCP(=O)(O)NCC(N)=O

>  <GI50>
> 100 µM (inactive)

$$$$
>  <compound>
O=C(O)c1ccc(Nc2nc3cc(C(F)(F)F)ccc3nc2C(=O)O)cc1

>  <GI50>
> 100 µM (inactive)

$$$$

Assign GI50 to the following record: COC(=O)CC(c1cn(S(=O)(=O)c2ccc(C)cc2)c2ccccc12)C1C[C@@H](C(=O)OC)N(C(=O)OC(C)(C)C)C1=O (stereo partly drawn)
63.8 µM (inactive)

Assign GI50 to the following record: CNS(=O)(=O)NNS(=O)(=O)c1cccc([N+](=O)[O-])c1
> 100 µM (inactive)

Assign GI50 to the following record: O=[N+]([O-])c1oc2ccc3ccccc3c2c1CCO
5.27 µM (inactive)

Assign GI50 to the following record: O=C(Cc1nc2ccc([N+](=O)[O-])cc2nc1O)C(=O)Nc1cc(Cl)c(Cl)cc1Cl
> 100 µM (inactive)

Assign GI50 to the following record: CC(=O)c1cccc(NC(=O)C(=O)c2c(O)oc3ccccc3c2=O)c1
> 100 µM (inactive)

Assign GI50 to the following record: CC(=O)NC1C(OCc2ccccc2)OC(CO)C(O)C1OC(C)C(=O)NC(C(=O)NC(CCC(=O)NCCCCNc1c2ccccc2nc2cccc([N+](=O)[O-])c12)C(N)=O)C(C)C (stereo not drawn)
1.81 µM (inactive)

Assign GI50 to the following record: CCOc1ncn(-c2ccc(NC(=S)Nc3cnccn3)cc2)n1
> 10 µM (inactive)

Assign GI50 to the following record: COc1ccc(-c2cc(-c3ccco3)c(C#N)c(=S)n2C2OC(COC(C)=O)C(OC(C)=O)C(OC(C)=O)C2OC(C)=O)cc1 (stereo not drawn)
3.28 µM (inactive)

The reported measurements were obtained from ChEMBL document CHEMBL1201862.
